# Lookup of reported Max. Activity (fold over background) keyed by entry
- assayed_target: Vg5/Vd2 TCR on SKW3 cells (UniProt A0JD36)
- Sequence (A0JD36 20-115): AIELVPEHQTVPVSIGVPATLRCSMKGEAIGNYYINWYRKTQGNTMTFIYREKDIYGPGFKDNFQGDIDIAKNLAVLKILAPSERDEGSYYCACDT
- protocol_description: flow cytometry DRC binding 37 C, SKW3 cells expressing Vg5/Vd2
Answer with the value's number alone.

Example binders with recorded Max. Activity (fold over background):
>  <binder>
VG9B392 (antibody, human IgG1, lambda, V domains shown) VH: QVQLVQSGAEVKRPGASAKVSCKTSGYTFTGYYIHWVRQAPGQGLEWMGWINPNSGYTNSAQKFQGRVSMTRDTSISTVYMELSRLRSDDTAVYYCAREDDAFDIWGQGTLVTVSS VL: SSELTQDPAVSVALGQTVRITCQGDSLRSYYARWYQQKPGQAPVLVIYGKNNRPSGIPDRFSGSSSGDTASLTITGALAEDEADYYCNSRDNSGNHVVFGGGTKVTVLG

>  <measured>
281

$$$$
>  <binder>
VG9B77 (antibody, human IgG1, kappa, V domains shown) VH: EVQLVESGAEVMKPGSSVKVSCKASGGTFSSYAISWVRQAPEQGLEWMGGIIPFFGTADYAQKFQGRVTITADKSTNTAYMELTSLRSEDTAVYYCATATVTTDYYYGMDVWGQGTMVTVSS VL: EIVMTQSPLFSPVTLGQPASISCRSSQSLVHSDGNTYLSWLQQRPGQPPRLLIYEISNRFTGVPDRFSGSGAGTDFTLKISRVEAEDVGVYYCMQARQFPLTFGGGTKVEIKR

>  <measured>
148

$$$$
>  <binder>
VG9B386 (antibody, human IgG1, kappa, V domains shown) VH: EVQLVESGGGLVKPGGSLRLSCAASGFTFSSYSMIWVRQAPGKGLEWVSSIGSSSTYIYYADSVRGRFTISRDNAKTSLYLQMNSLRAEDTAMYFCARDGETGGFDYWGQGILVTVSS VL: EIVMTQSPGTLSLSPGERATLSCRASQSISRSYLAWYQQKPGQPPRLLIYGPSNRATGIPDRFSASGSGTDFTLTNSRLEPEDFAVYYCQQYGSLPLTFGGGTKVEIKR

>  <measured>
92.7

$$$$
>  <binder>
VG9B96 (antibody, human IgG1, kappa, V domains shown) VH: EVQLVQSGAEVKKPGSSVKVSCKASGGTFSNYAISWVRLAPGQGLEWMGGIIPIFSAGTYAQRFQGRVTITADKSTSTAYMELNSLRSEDTAVYYCSSNSGTYYDYYYGMDVWGQGTMVTVSS VL: DIVMTQSPLSSHVTLGQPASISCRSSQSLVHSDGNTYLSWLQQRPGQPPRLLIYKIFNRLSGVPDRFSGSGAGTDFTLKISRVEAEDVGVYYCMQAKQFPLTFGGGTKVEIKR

>  <measured>
224

$$$$
>  <binder>
VG9B387 (antibody, human IgG1, lambda, V domains shown) VH: EVQLVESGAEVKKPGASVKVSCKASGFTFTGYYLQWVRQAPGQGLEWMGWINPNSGYTDYAQRFQDRVTMTRDTSINTAYMELSRLRSDDTAVYYCARLDDAFDVWGQGTMVTVSS VL: SYELTQDPAVSVALGQTVRITCQGDSLRNYYAIWYQQKPGQAPVLVIFGKNNRPSGIPDRFSGSSSGTTASLTITGTQAEDEADYYCNSRDSSGNHWVFGGGTKLTVLG

>  <measured>
261

$$$$
>  <binder>
VG9B112 (antibody, human IgG1, kappa, V domains shown) VH: QVQLQQSGPGLVKPSQTLSLTCAISGDSVSSNSAAWNWIRQSPSRGLEWLGGTYYRSKWFNNYAVSVKSRITINPDTSTNQFSLQLNSVTPADTAVYYCARGEWGLRDAFDIWGQGTMVTVSS VL: DIQMTQSPSFLSASVGDRVIITCRASQGIHSYLAWYQQKPGKVPKLLIYVASTLQSGVPSRFSGSGSGTEFTLTISSLQPEDFATYYCQQLNSYPWTFGQGTKLEIKR

>  <measured>
217

$$$$

Any idea what its Max. Activity (fold over background) is? The binder is VG9B47 (antibody, human IgG1, kappa, V domains shown) VH: QVQLVQSGAEVKKPGSSVKVSCKASGGSFSNYAISWMRQAPGQGLEWMGGIIPFFGTPDYAQKFQGRVTITADKSTSTAYMELSSLRSEDTAVYYCSTGGGYGDYDYYYGINVWGQGTMVTVSS VL: DIVMTQSPLSSPVDLGQPASISCRSSQSLVHSDGNTYLSWLQQRPGQPPRLLIYKISNRFSGVPDRFSGSGAGTDFTLKISRVEAEDVGVYYCMQAKEFPLTLGGGTKVDIKR
212

Now consider VG9B144 (antibody, human IgG1, lambda, V domains shown) VH: QVQLVQSGAEVKKPGASVKVSCKASGYTFTGYYMHWMRQAPGQGLEWMGWINPNSGATNKEQKFQGRVTMTRDTSISTAYMELSRLRSDDTAVYYCAREDDAFDVWGQGTMVTVSS VL: SSELTQDPAVSVALGQTVRITCQGDNLRNYYATWFQQKPGQAPVLVFFGKNNRPSGIPDRFSGSSSGDTASLTITGAQAEDEADYYCNSRDSSGNHVVFGGGTKLTVLG .
194

Ok, now VG9B136 (antibody, human IgG1, kappa, V domains shown) VH: QVQLQQSGPGLVKPSQTLSLTCAISGDSVSSNRAAWNWIRQSPSKGLEWLGRTYYRSKWYNEYAASVKSRMSINPDTSKNQFSLQLNSVTPEDTALYYCARDLWELREACDIWGQGTMVTVSS VL: DIVMTQSPSFLSTFVGDRVTITCRASQGISSYLAWYQQKPGKVPKLLIYVASTLQSGVPSRFSGSGSGTEFTLTISSLQPEDFATYYCQQLNSYPFTFGPGTKVDIKR
226

Try this binder too: VG9B379 (antibody, human IgG1, lambda, V domains shown) VH: EVQLVQSGPEVKKPGASVKVSCKASGYTFTGDYIHWVRQVPGQGLEWMGWINPNSGGTNYAQKFQGRVTMTRDTSISTAFMELSRLRSDDTAVYYCAREGGVAPAAPDAFDIWGQGTMVTVSS VL: SSELTQDPAVSVALGQTVRITCQGDSLRSYYARWYQQKPGQAPVVVIYGKNNRPSGIPDRFSGSSSGNTASLTITGAQAEDEADYYCNSRDSSGNHRVFGGGTKLTVLG
260

Then VG9B41 (antibody, human IgG1, kappa, V domains shown) VH: QVQLQESGPQLVRPGASVKISCKASGYSFTTYWMHWVKQRPGQGLEWIGLIDPSDSETRLNQKFKDKATLTVDKSSSTAYMRLSSPTSEDSAVYYCASNRWLLGWGQGTMVTVSS VL: EIVLTQTPLSSPVTLGQPASISCRSSQSLVHSDGNTYLSWLHQRPGQPPRLLIYKISNRFSGVPDRFSGSGAGTDFTLKISRVETEDVGVYYCVQTREFPLTFGGGTKVEIKR ?
16.1
